Origin of the recorded values: ChEMBL document CHEMBL5620376

Tested on: HepG2
Assay: Cytotoxicity against human HepG2 cells assessed as inhibition of cell proliferation at 20 to 80 micromol/L incubated for 24 hrs by MTT assay
Assay type: functional, cell-based
Conditions: dose 20-80 µmol/L
Activity calls are given as the source filed them. No cut-off for these calls is given here.
Labels: active, inactive

{"columns": ["Molecule", "Experimental target", "Assigned class"],
 "data": [
  ["CNc1ccc(C(=O)/C=C/c2cc(C)c(OC(C)(C)C(=O)OC(C)(C)C)c(C)c2)cc1", "HepG2", "inactive"],
  ["COc1ccc(C(=O)/C=C/c2cc(C)c(OC(C)(C)C(=O)OC(C)(C)C)c(C)c2)cc1", "HepG2", "inactive"],
  ["Cc1cc(/C=C/C(=O)c2ccc(N(C)C)cc2)cc(C)c1OC(C)(C)C(=O)OC(C)(C)C", "HepG2", "inactive"],
  ["Cc1cc(/C=C/C(=O)c2ccc(N(C)Cc3ccccc3)cc2)cc(C)c1OC(C)(C)C(=O)O", "HepG2", "inactive"],
  ["CNc1ccc(C(=O)/C=C/c2cc(C)c(OC(C)(C)C(=O)O)c(C)c2)cc1", "HepG2", "inactive"],
  ["CSc1ccc(C(=O)/C=C/c2cc(C)c(OC(C)(C)C(=O)OC(C)(C)C)c(C)c2)cc1", "HepG2", "inactive"],
  ["C[Se]c1ccc(C(=O)/C=C/c2cc(C)c(OC(C)(C)C(=O)O)c(C)c2)cc1", "HepG2", "active"],
  ["CSc1ccc(C(=O)/C=C/c2cc(C)c(OC(C)(C)C(=O)O)c(C)c2)cc1", "HepG2", "active"],
  ["Cc1cc(/C=C/C(=O)c2ccc(N(C)Cc3ccccc3)cc2)cc(C)c1OC(C)(C)C(=O)OC(C)(C)C", "HepG2", "inactive"],
  ["C[Se]c1ccc(C(=O)/C=C/c2cc(C)c(OC(C)(C)C(=O)OC(C)(C)C)c(C)c2)cc1", "HepG2", "inactive"],
  ["COc1ccc(C(=O)/C=C/c2cc(C)c(OC(C)(C)C(=O)O)c(C)c2)cc1", "HepG2", "active"],
  ["Cc1cc(/C=C/C(=O)c2ccc(N(C)C)cc2)cc(C)c1OC(C)(C)C(=O)O", "HepG2", "inactive"]
]}
